Provide the reported RP-LC retention time of each item.
PROCEDURE_SUMMARY: gradient 5% acetonitrile 3 min, to 50% in 2 min, to 85% in 15 min, held 3 min, 100 µL/min
CONDITION_LABEL: column: Zorbax Extend-C18 2.1 x 50 mm; eluents: water / acetonitrile, 0.1% formic acid
Numbers only, in s.

Hi there! I need RP-LC retention time for each item below, if you can.
1. COc1ccc(-c2nc3cc(C)ccn3c2NC(=O)c2ccc(F)cc2)cc1OC
2. COc1ccc(OC)c(NC(=O)Cn2c(C)cc(-c3nnc(C4CC4)o3)c2C)c1
3. CCc1ccc(CNC(=O)CCc2nc(N3CCCC3)c3c(C)noc3n2)cc1
4. Cc1cc(N2CCC(NC(=O)Nc3cc(F)cc(F)c3)C2=O)ccc1F (stereo not given)
5. CCCNC(=O)N1CCC(CCOc2cccnc2)CC1
6. Cc1ccc(CN2CCN(CC(=O)Nc3ccc(Cl)cn3)C(=O)C2=O)cc1
7. CCc1ccc(NC(=O)c2cc3c(=O)n(CC)ccc3n2C)cc1
8. NC(=O)c1cc(N2CC2)c([N+](=O)[O-])cc1[N+](=O)[O-]

1. 597
2. 830
3. 865
4. 931
5. 588
6. 759
7. 753
8. 650

Hi there! I need RP-LC retention time for each item below, if you can.
1. Cc1cc(NC(C)C)n2nc(-c3ccc(C(C)(C)C)cc3)nc2n1
2. CCN1CCN(c2ccc(NC(=O)C(C)(C)C)c(C(=O)O)c2)CC1
3. CCOC(=O)c1[nH]c(C)c(CCC(=O)N2CCC(C(=O)NCc3ccc(CC)cc3)CC2)c1C
4. COc1ccc(NC(=O)c2cn(-c3cc(N(C)C)ncn3)cn2)cc1F
5. COc1ccc(S(=O)(=O)N2CCN(c3cc(C)nc(N4CCCC4)n3)CC2)cc1Cl
6. CC1CC(=O)Nc2cc(S(=O)(=O)N3CCN(c4ncccn4)CC3)ccc2S1 (stereo not given)
7. O=C(CN1C(=O)CCc2cc(Br)ccc21)N1CCN(c2ncccn2)CC1

988
594
867
782
754
803
786

Hi there! I need RP-LC retention time for each item below, if you can.
1. O=C(c1cc(S(=O)(=O)N2CCCC(C(=O)N3CCOCC3)C2)c[nH]1)N1CCCCCC1 (stereo not given)
2. CCOc1ccc(NC(=O)N2C[C@H]3C[C@H](C2)[C@H]2CCCC(=O)N2C3)cc1
3. Cc1ccc(NS(=O)(=O)c2cc3c4c(c2)CCC(=O)N4CCC3)c(C)c1
4. COCCNC(=O)c1sc2ncn(CC(=O)N3CCCCC3C)c(=O)c2c1C (stereo not given)
5. Cn1c(C(=O)NCC2CCCO2)cc2c(=O)oc3ccccc3c21 (stereo not given)

1: 696; 2: 654; 3: 840; 4: 679; 5: 713

====

Provide the reported RP-LC retention time of each item.
PROCEDURE_SUMMARY: gradient 5% acetonitrile 3 min, to 50% in 2 min, to 85% in 15 min, held 3 min, 100 µL/min
CONDITION_LABEL: column: Zorbax Extend-C18 2.1 x 50 mm; eluents: water / acetonitrile, 0.1% formic acid
Answers are plain numbers, in s.

Consider the following illustrative entries.
CCCNC(=O)C1CCCN(c2nc3ncn(CC(=O)NCc4ccc(OC)cc4)c(=O)c3s2)C1 (centres undefined); 680
O=C(Cc1cccs1)NCC(c1ccsc1)N1CCCC1 (centres undefined); 558

Hi there! I need RP-LC retention time for each item below, if you can.
1. O=C1N(c2cccc(Cl)c2)c2ncccc2S(=O)(=O)N1Cc1ccccc1
2. O=C(NC1CC1)c1ccccc1OCC1CCCN(Cc2ccc3c(c2)CCO3)C1 (centres undefined)
3. Cc1ccc(NC(=O)N2CCCC2C(=O)NC(C)C)cc1 (centres undefined)
4. Cc1ccsc1C(=O)N1CCc2nn(C)c(=O)n2CC1
5. O=C(NCc1ccccn1)C1CCN(c2cc(Oc3ccccc3)ncn2)CC1
6. O=C(CN1C(=O)CSCC1=O)Nc1ccc2c(c1)OCO2

1. 1100
2. 580
3. 694
4. 610
5. 577
6. 638

Hi there! I need RP-LC retention time for each item below, if you can.
1. Cn1c(Nc2ccc(C(F)(F)F)cc2)nc2cc(Oc3ccnc(-c4ncc(C(F)(F)F)[nH]4)c3)ccc21
2. Cc1cc(C)nc(N2CCN(c3c4c(nc5c(-c6ccccc6)c(C)nn35)CCC4)CC2)n1

[994, 1210]

Hi there! I need RP-LC retention time for each item below, if you can.
1. CCNC(=O)Nc1ccc2c(c1)CN(S(=O)(=O)C(C)C)CCO2
2. COc1ccc(NC(=O)Cn2c(C(F)(F)F)nc3cc4c(cc32)OCCO4)cc1

1: 676; 2: 829

Hi there! I need RP-LC retention time for each item below, if you can.
1. CC(C)Cc1ccc(S(=O)(=O)N2CCC(c3nc4cccnc4n3C)C2)cc1 (centres undefined)
2. COc1cc(C)c(C)cc1S(=O)(=O)Nc1cccc(-c2ccc(N3CCCC3)nn2)c1
3. C=CCN1CCN(c2nc3cc(C(=O)OC)ccc3c(=O)n2-c2ccccc2)CC1
4. CCCn1ccc2oc(C)c(C(=O)N3CCN(c4ccc(OC)cc4)CC3)c2c1=O

[929, 607, 637, 707]

====

Provide the reported RP-LC retention time of each item.
PROCEDURE_SUMMARY: gradient 5% acetonitrile 3 min, to 50% in 2 min, to 85% in 15 min, held 3 min, 100 µL/min
CONDITION_LABEL: column: Zorbax Extend-C18 2.1 x 50 mm; eluents: water / acetonitrile, 0.1% formic acid
Give bare numbers, in s.

Consider the following illustrative entries.
O=C(C1=CN(c2ccc(F)c(F)c2)c2ccccc2S1(=O)=O)N1CCCCC1; 1040
CCN1C=C(C(=O)OCc2cccc(F)c2)C(C)=NS1(=O)=O; 968
Cc1cc2c(cc1CNC(=O)Cn1cc(C(=O)c3ccco3)c3ccccc31)OCCCO2; 837
CCc1cc(N2CCN(C(=O)COc3ccccc3OC)CC2)nc2nncn12; 601
O=C(Nc1ccc(F)c(Cl)c1)c1sc2ncccc2c1-n1cccc1; 1170
O=C(NC1CCCC1)C1CCCN(C(=O)c2ccc(F)c(F)c2)C1 (stereo not given); 763
CC(C)c1ccc(NC(=O)C2CCCN(c3ncnc4c3nc3n4CCCCC3)C2)cc1 (stereo not given); 899
CCC1CN2C=Nc3oc(C)c(C(=O)Nc4ccc(C(F)(F)F)cc4)c3C2=N1 (stereo not given); 753

Hi there! I need RP-LC retention time for each item below, if you can.
1. Cc1ccc2c(Nc3ccc(C(C)C)cc3)c(C(=O)N3CCCCC3C)cnc2n1 (stereo not given)
2. Cc1ccc(F)c(-n2nnc(C(=O)O)c2-c2ccncc2)c1
3. CCCCn1c(=O)c2ccccc2n(Cc2nc(-c3ccc(C)cc3)no2)c1=O
4. CCCCN1C(=O)C(C)(C(=O)NC2CCN(Cc3ccccc3)CC2)Oc2cccnc21 (stereo not given)
5. O=C(Cn1nc2n(c1=O)CCCC2)NCc1ccccc1Cl

1. 737
2. 654
3. 853
4. 694
5. 669

Hi there! I need RP-LC retention time for each item below, if you can.
1. CN1C(=O)C2CCCCN2c2ccc(C(=O)NCCc3ccc(Cl)cc3)cc21 (stereo not given)
2. COC(=O)c1ccccc1Sc1c(-c2ccccc2)nc2ncccn12
3. CCC1CN(C(=O)N2CCC(C(=O)NCCCN3CCOCC3)CC2)c2cc(C)ccc2O1 (stereo not given)
4. COc1cccc(C2CC(c3ccc(F)cc3)=NC3(CCN(C)CC3)N2)c1O (stereo not given)
5. COc1ccc(-c2cc(N3CCN(C(=O)c4ccc(C(C)(C)C)cc4)CC3)ncn2)cc1
6. CCC(=O)N1CCc2c(C(=O)N3CCN(c4ccccc4OC)CC3)cccc21
7. COc1ccc(-c2nnc(-c3ccccc3)o2)cc1S(=O)(=O)NC(C)C

1: 971; 2: 875; 3: 648; 4: 590; 5: 795; 6: 786; 7: 870

====

PROCEDURE_SUMMARY: gradient 5% acetonitrile 3 min, to 50% in 2 min, to 85% in 15 min, held 3 min, 100 µL/min
CONDITION_LABEL: column: Zorbax Extend-C18 2.1 x 50 mm; eluents: water / acetonitrile, 0.1% formic acid
Provide the reported RP-LC retention time of each item.
One number for each entry, in s.

Consider the following illustrative entries.
O=C(Nc1ccc2c(c1)OCCO2)c1cccc(N2CCNC(c3ccccc3)C2)n1 (stereo unspecified); 668
COC(=O)c1ccccc1NC(=O)CN1C(=O)CN=C(c2ccccc2)c2ccccc21; 958
COc1ccc(C2CCCN2C(=O)c2cc(C)on2)cc1 (stereo unspecified); 786
CCc1cc(C2CCCN2C(=O)Cc2ccccc2F)on1 (stereo unspecified); 777
COc1ccc(CC(C)(O)CNC(=O)C2CC2)cc1 (stereo unspecified); 631

Hi there! I need RP-LC retention time for each item below, if you can.
1. CCc1cc(=O)n(CC(=O)N2CCc3ccccc32)c(N)n1
2. C=CCN=C(NC#N)SC
3. Cc1ccc(NC(=O)N2CCC(c3nc(C(=O)N(C)C)c(C)o3)CC2)cc1
4. O=C(NCCC1=CCCCC1)C1CCCN(c2ccc3nncn3n2)C1 (stereo unspecified)
5. O=C(c1ccccc1Cl)N1CCN(Cc2noc3ccccc23)CC1
6. NS(=O)(=O)c1ccc(CCNCc2ccc(-c3ccc(F)cc3)o2)cc1

[627, 696, 705, 770, 755, 643]

Hi there! I need RP-LC retention time for each item below, if you can.
1. O=C1NC2(CCN(C(=O)NCc3ccccc3)CC2)Oc2ccccc21
2. O=C(Nc1ccc2c(c1)OCCO2)c1cc2nc(N3CCCCC3)sc2s1
3. COc1ccc(Cl)c2c(=O)c3c([nH]c12)CCN(CC(=O)Nc1cccc(C#N)c1)C3
4. CCOCCCNC(=O)c1nc(Nc2ccc(F)cc2)c2ccccc2n1
5. Cc1ccc(-n2nc3c(N4CCCC(C(=O)NCc5ccc(Cl)cc5)C4)nnc(C)c3c2C)cc1 (stereo unspecified)
6. COc1ccc(CNC(=O)NCCC(O)C(C)(C)C)cc1 (stereo unspecified)

[963, 1010, 801, 746, 789, 678]
